Assignment: determine reported IC50 for the given compounds.
Molecular target: Acetylcholinesterase (Anopheles gambiae)
Sequence (Q869C3 whole entry): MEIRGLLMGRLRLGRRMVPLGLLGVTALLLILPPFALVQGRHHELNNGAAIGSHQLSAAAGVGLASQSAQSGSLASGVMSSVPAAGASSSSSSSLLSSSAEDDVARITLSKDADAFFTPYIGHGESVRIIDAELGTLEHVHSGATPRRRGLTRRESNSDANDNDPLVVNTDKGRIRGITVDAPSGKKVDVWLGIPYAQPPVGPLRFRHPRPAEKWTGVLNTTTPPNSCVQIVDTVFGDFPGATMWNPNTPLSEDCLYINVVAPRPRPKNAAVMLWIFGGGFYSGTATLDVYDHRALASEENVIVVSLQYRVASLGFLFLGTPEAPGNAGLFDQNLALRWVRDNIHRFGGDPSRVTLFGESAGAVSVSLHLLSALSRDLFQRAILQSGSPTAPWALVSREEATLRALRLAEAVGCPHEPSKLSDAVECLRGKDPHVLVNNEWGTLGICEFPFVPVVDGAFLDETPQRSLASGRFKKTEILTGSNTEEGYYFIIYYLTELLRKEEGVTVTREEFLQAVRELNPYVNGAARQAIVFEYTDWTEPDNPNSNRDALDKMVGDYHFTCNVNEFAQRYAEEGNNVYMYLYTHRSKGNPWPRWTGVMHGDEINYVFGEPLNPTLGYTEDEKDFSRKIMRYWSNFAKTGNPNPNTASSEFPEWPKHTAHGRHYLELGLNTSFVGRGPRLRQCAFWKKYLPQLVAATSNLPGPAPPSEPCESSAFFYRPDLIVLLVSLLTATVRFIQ
Test: Inhibition of AChE1 in Anopheles gambiae body extract using acetylthiocholine iodide as substrate measured over 60 secs by Ellman's method
One number for each entry, in µM.

COc1ccc(NC(=S)NCCN2CCOCC2)cc1Cl = 0.15

Moving on to the next compound.
q: Check the records and state IC50 for "COc1ccccc1NC(=S)NCCN(C)C"
a: 7.6

###

Test: Inhibition of recombinant full length Aedes aegypti AChE1 expressed in baculovirus-infected Sf9 insect cells using acetylthiocholine iodide as substrate measured over 60 secs by Ellman's method
Please go through the items and note down their IC50.

For each entry beneath this line, provide reported IC50.
1. COc1ccc(NC(=S)NCCN2CCCCC2)cc1
2. COc1ccc(NC(=S)NCCN(C)C)cc1
3. FC(F)(F)c1ccc(NC(=S)NCCN2CCCCC2)cc1
4. COc1cc(NC(=S)NCCN2CCOCC2)ccc1Cl
5. COc1ccc(NC(S)=NCCN2CCC(C)CC2)cc1
6. COc1ccccc1N=C(S)NCCN1CCOCC1
7. CN(C)CC/N=C(/S)Nc1ccc(S(N)(=O)=O)cc1
8. CC1CCN(CCNC(=S)Nc2cccc(Cl)c2)CC1

a:
1. 28 µM
2. > 200 µM
3. > 200 µM
4. > 200 µM
5. > 200 µM
6. > 200 µM
7. 56 µM
8. > 200 µM

Batch: IC50 for all items listed.
1. NS(=O)(=O)c1ccc(NC(=S)NCCN2CCCCC2)cc1
2. COc1ccc(NC(=S)NCCN2CCOCC2)cc1Cl

a:
1. 5.5 µM
2. 0.09 µM
